TEST SYSTEM: IRAK4 (Homo sapiens)
Construct: endogenous in cells; host or cells: Karpas299
Sequence (Q9NWZ3 1-460): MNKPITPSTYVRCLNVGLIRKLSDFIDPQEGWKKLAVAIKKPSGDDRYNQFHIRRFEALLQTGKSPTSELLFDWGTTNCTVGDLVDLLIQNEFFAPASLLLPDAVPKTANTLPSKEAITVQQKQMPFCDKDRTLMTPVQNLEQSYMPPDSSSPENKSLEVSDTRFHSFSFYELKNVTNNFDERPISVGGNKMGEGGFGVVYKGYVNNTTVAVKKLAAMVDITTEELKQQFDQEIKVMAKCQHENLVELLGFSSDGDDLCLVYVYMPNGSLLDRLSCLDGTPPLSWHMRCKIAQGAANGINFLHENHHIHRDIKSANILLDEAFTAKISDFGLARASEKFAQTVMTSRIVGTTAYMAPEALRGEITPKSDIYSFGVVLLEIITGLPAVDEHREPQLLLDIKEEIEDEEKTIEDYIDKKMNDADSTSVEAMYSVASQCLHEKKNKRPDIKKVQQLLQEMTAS
ASSAY NOTES: IRAK4 Degradation Assay (Karpas299, HTRF/TR-FRET)
Format: cell-based
RUN PARAMETERS: Karpas-299 cells, 24 h treatment; read-out: IRAK4 in Karpas-299 (24 h) DC50
Method: IRAK4 degradation was measured using a TR-FRET-based method (Degorce, François, et al. Current chemical genomics. 2009, 3: 22). […] IRAK4 level was quantitated using the HTRF kit as described by the manufacturer manual (Cisbio). FRET signals were measured using a PHERAstar FSX reader (BMG Labtech). […] The inhibition (degradation) percentage of the compound was calculated by the following equation: […]
Some molecules, each annotated with its measured DC50.
A number alone suffices; assume nM.

Answered examples (2):
COc1cc(N2CC(C(=O)N3CCN([C@H]4CC[C@H](n5cc6cc(NC(=O)c7ccc8cc(C#N)cnn78)c(C(C)(C)O)cc6n5)CC4)CC3)C2)ccc1N1CCC(=O)NC1=O; 1.8
CC(C)(O)c1cc2nn(C34CC(N5CCN(CCc6cc(F)c([C@H]7CCC(=O)NC7=O)c(F)c6)CC5)(C3)C4)cc2cc1NC(=O)c1ccc2cc(C#N)cnn12; 1.5

Lab book: DC50 of COc1cc2nn([C@H]3CC[C@H](CN4CCN(C(=O)[C@@H]5CCN(c6ccc(N7CCC(=O)NC7=O)cc6)C5)CC4)CC3)cc2cc1NC(=O)c1cccc(C(F)(F)F)n1 noted as 15

###

TEST SYSTEM: IRAK4 (Homo sapiens)
Construct: endogenous in cells; host or cells: Karpas299
ASSAY NOTES: IRAK4 Degradation Assay with Human Serum (Karpas299, HTRF/TR-FRET)
Type: cell-based
RUN PARAMETERS: Karpas-299 in human serum, 24 hrs treatment; read-out: IRAK4 degradtion with human serum assay Dmax (%)
Some compounds, each annotated with its measured Dmax.
A number alone suffices; assume %.

Answered examples (2):
CC(C)(O)c1cc2nn([C@H]3CC[C@H](CN4CCN(C5CN(c6cc(F)c([C@H]7CCC(=O)NC7=O)c(F)c6)C5)CC4)CC3)cc2cc1NC(=O)c1ccc2cc(C#N)cnn12; 97
CC(C)(O)c1cc2nn([C@H]3CC[C@H](N4CCN(C[C@H]5CCN(c6ccc7c(c6)C(=O)N(C6CCC(=O)NC6=O)C7=O)C5)CC4)CC3)cc2cc1NC(=O)c1ccc2cc(C#N)cnn12 (stereo partly drawn); 92

Lab book: Dmax of CC(C)(O)c1cc2nn([C@H]3CC[C@H](N4CCN(CC5CN(c6cc(F)c(N7CCC(=O)NC7=O)c(F)c6)C5)CC4)CC3)cc2cc1NC(=O)c1ccc2cc(C#N)cnn12 noted as 94

Data provenance is patent US20250195513A1.
